- CONDITIONS: 2 h, 10 μM
MEASURED_QUANTITY: Prodrug (%) remaining, Human Plasma

- COCCCCC(=O)OC1=C[C@@H]2N(C)CC[C@]2(c2ccc(OC)c(OC)c2)CC1: 3.8
- CCC(CC)C(=O)OC1=C[C@@H]2N(C)CC[C@]2(c2ccc(OC)c(OC)c2)CC1: 73.6
- COc1ccc([C@@]23CCC(OC(=O)CCC(C)C)=C[C@@H]2N(C)CC3)cc1OC: 0.3
- CCCC(CCC)C(=O)OC1=C[C@@H]2N(C)CC[C@]2(c2ccc(OC)c(OC)c2)CC1: 95.5
- CCCCCC(C)C(=O)OC1=C[C@@H]2N(C)CC[C@]2(c2ccc(OC)c(OC)c2)CC1 (some centres unmarked): 2.3
- CCCC(C)(C)C(=O)OC1=C[C@@H]2N(C)CC[C@]2(c2ccc(OC)c(OC)c2)CC1: 91.8
- CCCCCCCC(=O)OC1=C[C@@H]2N(C)CC[C@]2(c2ccc(OC)c(OC)c2)CC1: 0.3
- COc1ccc([C@@]23CCC(OC(=O)CC(C)(C)C)=C[C@@H]2N(C)CC3)cc1OC: 52.6
- COCCOCCC(=O)OC1=C[C@@H]2N(C)CC[C@]2(c2ccc(OC)c(OC)c2)CC1: 65.7
- CCCC(C)C(=O)OC1=C[C@@H]2N(C)CC[C@]2(c2ccc(OC)c(OC)c2)CC1 (some centres unmarked): 1.6
- CCCCC(CC)C(=O)OC1=C[C@@H]2N(C)CC[C@]2(c2ccc(OC)c(OC)c2)CC1 (some centres unmarked): 94.4
- COc1ccc([C@@]23CCC(OC(=O)CCN)=C[C@@H]2N(C)CC3)cc1OC: 0.2
